Provide the recorded kinase still bound, per cent of control for the entries that follow.
# study-system: AURKB (human) (UniProt Q96GD4)
# Sequence (Q96GD4 whole entry, looked up): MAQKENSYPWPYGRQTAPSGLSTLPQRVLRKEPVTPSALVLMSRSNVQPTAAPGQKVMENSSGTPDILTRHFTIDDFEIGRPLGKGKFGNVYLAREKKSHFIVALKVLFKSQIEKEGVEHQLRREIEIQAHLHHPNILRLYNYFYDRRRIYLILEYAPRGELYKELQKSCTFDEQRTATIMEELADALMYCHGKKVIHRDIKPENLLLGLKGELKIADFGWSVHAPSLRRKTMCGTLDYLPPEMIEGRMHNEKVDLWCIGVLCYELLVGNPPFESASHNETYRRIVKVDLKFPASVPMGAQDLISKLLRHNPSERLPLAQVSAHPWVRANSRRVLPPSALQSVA
# experiment-notes: KINOMEscan competition binding
# applied-conditions: compound 10.0 µM
Give bare numbers, in %.

For orientation, consider the following solved cases.
Consider CCN(CC)CCCCNc1ncc2cc(-c3cc(OC)cc(OC)c3)c(NC(=O)NC(C)(C)C)nc2n1 . Its measured kinase still bound, per cent of control is 100

Consider CS(=O)(=O)N1CCN(Cc2cc3nc(-c4cccc5[nH]ncc45)nc(N4CCOCC4)c3s2)CC1 . Its measured kinase still bound, per cent of control is 100

Consider COc1cc(N2CCN(C)CC2)ccc1Nc1ncc2c(n1)N(C)c1ccccc1C(=O)N2C . Its measured kinase still bound, per cent of control is 100

Report kinase still bound, per cent of control for every entry below.
1. COc1ccc(N(C(=O)Oc2c(C)cccc2C)c2ccnc(Nc3ccc(N4CCN(C)CC4)cc3)n2)c(OC)c1
2. COc1cc(C(=O)N2CCC(N3CCN(C)CC3)CC2)ccc1Nc1ncc2c(n1)N(C)c1ccccc1C(=O)N2C

// result
18
38

Report kinase still bound, per cent of control for every entry below.
1. CNC(=O)c1ccc(Nc2cc(Nc3ccccc3S(=O)(=O)C(C)C)c3cc[nH]c3n2)nc1
2. Cc1n[nH]c2ccc(-c3cncc(OC[C@@H](N)Cc4c[nH]c5ccccc45)c3)cc12
3. C=CC(=O)Nc1ccc(CN(C(=O)Nc2c(Cl)c(OC)cc(OC)c2Cl)c2cc(Nc3ccc(N4CCN(C)CC4)cc3)ncn2)cc1
4. COc1cc2ncn(-c3cc(OCc4ccccc4C(F)(F)F)c(C(N)=O)s3)c2cc1OC
5. NC(=O)Nc1cc(-c2cccc(F)c2)sc1C(=O)N[C@@H]1CCCNC1

// result
1. 0.7
2. 100
3. 100
4. 34
5. 4.8

Report kinase still bound, per cent of control for every entry below.
1. COCC(=O)NC/C=C/c1ccc2ncnc(Nc3ccc(Oc4ccc(C)nc4)c(C)c3)c2c1
2. O=C1NC(=O)/C(=C/c2ccc3nccc(-c4ccncc4)c3c2)S1
3. N#CCNC(=O)c1ccc(-c2ccnc(Nc3ccc(N4CCOCC4)cc3)n2)cc1
4. O=c1cc(N2CCOCC2)oc2c(-c3cccc4c3sc3ccccc34)cccc12

// result
1: 100; 2: 39; 3: 69; 4: 100
